# ASSAY_INFO: Cmax in CD-1 mouse at 1 mg/kg, po or 0.5 mg/kg, iv measured upto 24 hrs by LC-MS/MS analysis
# Type: ADME, organism-based
# CONDITION_CONTEXT: in vivo
Below, each entry is listed with its recorded Cmax.
MEASURED_ATTRIBUTE: Cmax (nM)

• C=CC(=O)N(c1ccc(O[C@@H]2CC[C@@H](NC(=O)N[C@@H]3CCS(=O)(=O)C3)C2)c(Cl)c1)[C@@H](C)c1ccc(Cl)cc1 = 15
• C=CC(=O)N(c1ccc(O[C@@H]2CC[C@@H](NC(=O)N[C@@H]3CCS(=O)(=O)C3)C2)c(F)c1)[C@@H](C)c1ccc(Cl)cc1 = 53
